The following sequences are listed with their measured switch fluorescence ratio values.
- Tested on: ATP;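 note: ATP exposure 15 min at 22 °C before imaging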
- ASSAY_INFO: switch fluorescence ratio, 500 uM ATP over buffer (Cy3 cluster intensity, sum of 5 cycles each) (fold (ratio)); higher = stronger signal-on switching upon ATP binding; sequences stand for … in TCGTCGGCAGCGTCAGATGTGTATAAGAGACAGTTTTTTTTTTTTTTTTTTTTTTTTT…TC
- SETUP_CONDITIONS: aptamer strand: ATP DNA aptamer (quencher-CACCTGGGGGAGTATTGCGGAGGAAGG + anchor), 100 nM annealed; ATP concentration: 500 uM

Past entries and their recorded results:
{"SEQUENCE_CONTENT": "AAAAAACGCT", "EXPERIMENTAL_VALUE": 1.08}
{"SEQUENCE_CONTENT": "TGTTGTGATT", "EXPERIMENTAL_VALUE": 0.994}
{"SEQUENCE_CONTENT": "GTTAACAGTT", "EXPERIMENTAL_VALUE": 0.989}

// field: switch fluorescence ratio; key: "GGCGCGTCCA" ; value = 0.994

// field: switch fluorescence ratio; key: "TCGGCGTAAG" ; value = 0.998

// field: switch fluorescence ratio; key: "TTATGAATTT" ; value = 0.98

// field: switch fluorescence ratio; key: "TGGGACTTGG" ; value = 1.01

// field: switch fluorescence ratio; key: "GGGGCATTAT" ; value = 1.06

* * *

- System: ATP;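 note: ATP exposure 15 min at 22 °C before imaging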
- ASSAY_INFO: switch fluorescence ratio, 500 uM ATP over buffer (Cy3 cluster intensity, sum of 5 cycles each) (fold (ratio)); higher = stronger signal-on switching upon ATP binding; sequences stand for … in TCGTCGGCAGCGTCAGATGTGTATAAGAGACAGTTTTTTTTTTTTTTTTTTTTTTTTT…TC
- SETUP_CONDITIONS: aptamer strand: ATP DNA aptamer (quencher-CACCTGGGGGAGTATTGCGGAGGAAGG + anchor), 100 nM annealed; ATP concentration: 500 uM
MEASURED_ENDPOINT: switch fluorescence ratio
# respond with the number and nothing more

Past entries and their recorded results:
{"SEQUENCE_CONTENT": "GGTATGGGAC", "TEST_SYSTEM": "ATP", "EXPERIMENTAL_VALUE": 1}
{"SEQUENCE_CONTENT": "GTTTTCAAAG", "TEST_SYSTEM": "ATP", "EXPERIMENTAL_VALUE": 0.973}
{"SEQUENCE_CONTENT": "GATAGCTCTG", "TEST_SYSTEM": "ATP", "EXPERIMENTAL_VALUE": 1.02}
{"SEQUENCE_CONTENT": "TGCAAATTGG", "TEST_SYSTEM": "ATP", "EXPERIMENTAL_VALUE": 0.992}
{"SEQUENCE_CONTENT": "CTGGTAAGGA", "TEST_SYSTEM": "ATP", "EXPERIMENTAL_VALUE": 1.02}

// field: switch fluorescence ratio; key: "CGGGGGTTCT" ; value = 1.01

// field: switch fluorescence ratio; key: "CTTGGCTCTT" ; value = 0.985

// field: switch fluorescence ratio; key: "TCATGGTTTT" ; value = 0.977

// field: switch fluorescence ratio; key: "TTCACATTTT" ; value = 0.996

// field: switch fluorescence ratio; key: "CAGGGAAAAT" ; value = 0.982

// field: switch fluorescence ratio; key: "TGGAGAAGGT" ; value = 1.02

// field: switch fluorescence ratio; key: "CAGGTACGGG" ; value = 1.02

// field: switch fluorescence ratio; key: "GGTTAGTATG" ; value = 1.01

// field: switch fluorescence ratio; key: "AGGGATGTTG" ; value = 0.995
